Documented Avg kcat (Hz) across a set of molecules
- Tested on: LPESG (Abz-LPESGK(Dnp)-CONH2)
- Experiment: In vitro sortase kinetics HPLC assay, LPESG substrate
- Type: biochemical
- Cond: Example 5 variants; substrate 4S (LPESG)

- Molecule: "eSrtA(4S-6): round 6 consensus variant targeting LPESG (protein) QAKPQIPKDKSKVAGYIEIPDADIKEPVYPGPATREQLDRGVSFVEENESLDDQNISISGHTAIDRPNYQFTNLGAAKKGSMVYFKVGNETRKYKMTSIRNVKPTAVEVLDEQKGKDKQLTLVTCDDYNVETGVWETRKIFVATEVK"
  Unit text: "Hz"
  Avg kcat (Hz): 0.9425
- Molecule: "eSrtA(4S-4): 5mut + A104V A118T F122S I182V (protein) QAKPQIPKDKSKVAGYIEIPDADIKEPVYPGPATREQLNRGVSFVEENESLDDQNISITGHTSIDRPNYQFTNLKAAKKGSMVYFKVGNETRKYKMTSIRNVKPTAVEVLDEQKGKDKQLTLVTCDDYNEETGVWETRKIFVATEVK"
  Unit text: "Hz"
  Avg kcat (Hz): 0.7574
- Molecule: "eSrtA(4S-5): 5mut + N98D A104V A118T F122A K134R I182V (protein) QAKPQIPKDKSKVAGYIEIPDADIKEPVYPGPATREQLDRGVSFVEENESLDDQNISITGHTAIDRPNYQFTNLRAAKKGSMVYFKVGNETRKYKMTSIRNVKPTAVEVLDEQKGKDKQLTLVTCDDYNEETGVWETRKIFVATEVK"
  Unit text: "Hz"
  Avg kcat (Hz): 0.3877
